- system under test: Tyrosine-protein phosphatase non-receptor type substrate 1 (Homo sapiens) + Leukocyte surface antigen CD47 (Homo sapiens) (UniProt P78324+Q08722)
- Sequence (P78324 whole entry, looked up): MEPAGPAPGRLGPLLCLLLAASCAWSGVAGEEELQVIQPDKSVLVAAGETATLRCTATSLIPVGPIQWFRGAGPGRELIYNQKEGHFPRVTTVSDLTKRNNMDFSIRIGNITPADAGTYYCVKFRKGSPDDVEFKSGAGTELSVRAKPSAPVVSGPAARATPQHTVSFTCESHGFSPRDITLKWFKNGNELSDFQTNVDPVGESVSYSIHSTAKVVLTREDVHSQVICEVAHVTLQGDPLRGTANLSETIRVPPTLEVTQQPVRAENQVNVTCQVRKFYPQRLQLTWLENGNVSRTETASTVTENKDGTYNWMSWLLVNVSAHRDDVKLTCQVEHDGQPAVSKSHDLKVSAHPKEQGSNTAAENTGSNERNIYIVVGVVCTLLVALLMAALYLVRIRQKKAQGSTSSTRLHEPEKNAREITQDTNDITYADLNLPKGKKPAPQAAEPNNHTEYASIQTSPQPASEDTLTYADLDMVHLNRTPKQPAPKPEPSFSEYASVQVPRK
- Sequence (Q08722 whole entry, looked up): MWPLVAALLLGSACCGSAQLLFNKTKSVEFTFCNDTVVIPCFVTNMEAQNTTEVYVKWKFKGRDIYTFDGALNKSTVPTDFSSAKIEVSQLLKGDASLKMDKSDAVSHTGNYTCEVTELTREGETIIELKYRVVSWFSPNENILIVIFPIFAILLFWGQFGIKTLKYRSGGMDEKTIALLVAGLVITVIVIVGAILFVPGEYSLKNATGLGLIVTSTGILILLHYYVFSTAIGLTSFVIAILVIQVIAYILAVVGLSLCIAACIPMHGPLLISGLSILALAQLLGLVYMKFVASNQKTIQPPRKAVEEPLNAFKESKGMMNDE
- assay details: CD47-SIRPalpha protein protein interaction - Alpha assay qHTS validation (AID 1347059);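 also: bead proximity luminescence from CD47 binding SIRPalpha after compound preincubation with SIRPalpha; % is scaled to controls: 0 for no effect and ±100 for the full control effect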
- stated conditions: AlphaScreen CD47-His/biotin-SIRPalpha binding, LOPAC; series mostly up to 38.3 µM
Inconclusive results are not listed. Activity calls are given as the source filed them. Calls follow the shape of the dose curve; as a rule, active = well fitted inhibition curve with a large enough effect; inconclusive = small, poorly fitted or top-dose-only effect; inactive = flat fitted curve, though single readings scatter.
observed property: outcome

compound="Nc1ncnc2c1nc(Sc1ccc(Cl)cc1)n2[C@H]1OC2COP(=O)(O)O[C@@H]2C1O (stereo not given in full)" observed_property=outcome endpoint_value=inactive
compound="CCCCCCCCCC(=O)NC(CN1CCOCC1)[C@H](O)c1ccccc1 (stereo not given in full)" observed_property=outcome endpoint_value=inactive
compound=N[C@@H](Cc1ccc(F)cc1)C(=O)O observed_property=outcome endpoint_value=inactive
compound=Nc1nc2c(cnn2CCc2ccccc2)c2nc(-c3ccco3)nn12 observed_property=outcome endpoint_value=inactive
compound="Cn1cc(C(F)(F)F)nc1-c1ccc(OCC(O)CNCCOc2ccc(O)c(C(N)=O)c2)cc1 (stereo not given)" observed_property=outcome endpoint_value=inactive
compound="COc1cc(C(O)CO)ccc1O (stereo not given)" observed_property=outcome endpoint_value=inactive
compound=CN(C)CCCc1cc(C(=O)Nc2ccc(-c3ccncc3)cc2)ccc1O observed_property=outcome endpoint_value=inactive
compound=CC(N)=NCCCC[C@@H](N)C(=O)O observed_property=outcome endpoint_value=inactive
compound=N[C@@H](CCCC(=O)O)C(=O)O observed_property=outcome endpoint_value=inactive
compound=N#Cc1cc2nc(O)c(O)nc2cc1[N+](=O)[O-] observed_property=outcome endpoint_value=inactive

Req: For the compound shown here, `CCCCCCC/C=C\CCCCCCCCC(=O)O` , give the reported outcome.
Resp: inactive

Req: For the compound shown here, O=C(O)C1CN(CCCP(=O)(O)O)CCN1 (stereo not given) , give the reported outcome.
Resp: inactive

Req: For the compound shown here, `CN[C@H](CC(=O)O)C(=O)O` , give the reported outcome.
Resp: inactive

Req: For the compound shown here, `O=C(OCCN1CCOCC1)C1(c2ccccc2)CCCCC1` , give the reported outcome.
Resp: inactive

---

- assay details: Nrf2 qHTS screen for inhibitors: Validation (AID 493153)
- stated conditions: A549 ARE-Fluc reporter, 18-24 h; measured here: cytotoxicity max response
Records with an inconclusive call do not appear.
Listed compounds paired with reported viability change
Report the figure in % without appending any unit label.

compound=CN(C)C(=O)/N=N/C(=O)N(C)C endpoint_value=1.53
compound="C=C1C[C@@]23CC[C@H]4[C@@](C)(CCC[C@@]4(C)C(=O)OC4OC(CO)C(O)C(O)C4O)[C@@H]2CC[C@]1(OC1OC(CO)C(O)C(O)C1OC1OC(CO)C(O)C(O)C1O)C3 (stereo partly specified)" endpoint_value=-3.06

Req: For the compound shown here, c1ccc(C2CN3CCSC3=N2)cc1 (stereo unspecified) , give the reported viability change.
Resp: 5.53

Req: For the compound shown here, `O=c1ccn([C@@H]2O[C@H](COP(=O)(O)OP(=O)(O)O)[C@@H](O)[C@H]2O)c(=O)[nH]1` , give the reported viability change.
Resp: 3.88

Req: For the compound shown here, `O=c1[nH]c(=O)c2nc3ccccc3nc2[nH]1` , give the reported viability change.
Resp: -5.91

Req: For the compound shown here, CCCCS(=N)(=O)CC[C@H](N)C(=O)O (stereo partly specified) , give the reported viability change.
Resp: 0.751

Req: For the compound shown here, Nc1nc2c(nc(Br)n2C2OC3COP(=O)(O)O[C@@H]3C2O)c(=O)[nH]1 (stereo partly specified) , give the reported viability change.
Resp: 2.34

Req: For the compound shown here, `OC[C@H]1NC[C@@H](O)[C@@H]1O` , give the reported viability change.
Resp: 4.02

Req: For the compound shown here, `NC1(C(=O)O)CC1` , give the reported viability change.
Resp: 4.01

Req: For the compound shown here, `CCC(=O)N1CCN(C(=O)c2ccccc2)CC1` , give the reported viability change.
Resp: 1.55
